Tested on: DH10B-pVSF2-tet^r (NahR mutant, Psal fused to tetA)
Test: microbe, parasite or virus in culture
Details: Escherichia coli, read-out: concentration required for half maximal colony size (colony diameter 50% of maximum), product added extracellularly, selective plates; estimated from inverse plots of FIG. 3
observable: EC50

Lab note: measured EC50 of O=C(O)c1ccccc1 [benzoate] was ~400 µM

meta.source: patent US20090227470A1
